System: UO-31 renal
test_description: NCI-60 one-dose screen, 48 h
measurement_setup: 10 µM unless noted
The panel holds about 83,000 compounds, 20% with a hit somewhere; the sample as a whole holds those more often. Activity calls are given as the source filed them. Rule for the calls: active = growth percent below 10; inactive = the rest.
# output must be one of active, inactive

Write down the call the test reported for this molecule. Item: COc1ccc(C(=O)/C=C/c2c(OC)cc(OC)cc2OC)c(OC)c1 inactive

Write down the call the test reported for this molecule. Item: CCCCCN1C=C/C(=C\C(=O)N(C)c2ccc(Br)cc2)c2ccccc21 inactive

Write down the call the test reported for this molecule. Item: COc1cc(OC)cc(C2C3=C(COC3=O)Nc3cc(OC)ccc32)c1 (stereo unspecified) inactive

Write down the call the test reported for this molecule. Item: O=C(Nc1nc2ccc(S(=O)(=O)Nc3ccc(C4(C(F)(F)F)CC4)cc3)cc2[nH]1)c1cnccn1 inactive

Write down the call the test reported for this molecule. Item: C[C@H]1[C@H](C)CC[C@]2(CO)CC[C@]3(C)C(=CC[C@@H]4[C@@]5(C)CCCNC(C)(C)[C@@H]5CC[C@]43C)[C@H]12 inactive

Write down the call the test reported for this molecule. Item: CC(=O)c1c[nH]c2ccc(-c3ccnc(Nc4ccc(NC(=O)c5cccc(F)c5)c(CN5CCOCC5)c4)n3)cc12 active

Write down the call the test reported for this molecule. Item: CCCC1C(C(=O)OCC)=C(N)Oc2cc(O)ccc21 (stereo unspecified) inactive

Write down the call the test reported for this molecule. Item: CC(O)/C=C/C=C/C(O)CC/C=C/C(=O)NCC(C)(C)O (stereo unspecified) inactive

Write down the call the test reported for this molecule. Item: COc1ccc(C(=O)c2cc3c(N)c(C(=O)Nc4cccc(Br)c4C)sc3nc2C)cc1 inactive

Write down the call the test reported for this molecule. Item: CC(C)NC(=O)N1C(=O)CCC1NNC(=O)c1ccc([N+](=O)[O-])cc1 (stereo unspecified) inactive

Write down the call the test reported for this molecule. Item: COc1cc(-c2nc3occn3c2-c2ccnc(NCCNS(=O)(=O)c3ccc(Cl)cc3)n2)ccc1F inactive

Write down the call the test reported for this molecule. Item: CCc1nc(C)cn1C(=O)OCc1nc2nc(Cl)nc(N3CCOCC3)c2[nH]1 active

Write down the call the test reported for this molecule. Item: O=C(CN1CCOCC1)Nc1ccc2ncnc(Nc3ccc(Oc4cccc(C(F)(F)F)c4)c(Cl)c3)c2c1 inactive

Write down the call the test reported for this molecule. Item: COc1ccc(CNCCN2C(=O)c3ccc4c5c(ccc(c35)C2=O)C(=O)N(CCNCc2ccc(OC)cc2)C4=O)cc1 active

Write down the call the test reported for this molecule. Item: CCN(CC)CCSCCCNc1c(C)cnc2cc(Cl)ccc12 inactive

Write down the call the test reported for this molecule. Item: Clc1cc(Cl)cc(N2N=C(c3cccc(Nc4ccncc4)c3)CC2c2ccccc2)c1 (stereo unspecified) inactive

Write down the call the test reported for this molecule. Item: BrC(Br)(Br)c1cnc2ccccc2n1 active

Write down the call the test reported for this molecule. Item: CCn1cc(C2NC(=O)c3ccccc3N2)c2cccc(C)c21 (stereo unspecified) inactive

Write down the call the test reported for this molecule. Item: Cc1c(C2=CCCCC2)c2ccccn2c1C(=O)c1cccc(S(=O)(=O)N2CCOCC2)c1 inactive

Write down the call the test reported for this molecule. Item: [O-][n+]1ccccc1CCN(O)CCc1cccc[n+]1[O-] inactive

Write down the call the test reported for this molecule. Item: CCNNC(=O)[C@@H]1[C@H](c2cc(OC)c(OC)c(OC)c2)c2cc3c(cc2[C@H](O)[C@H]1CO)OCO3 inactive

Write down the call the test reported for this molecule. Item: CC[C@H](C)[C@@H]1NC(=O)[C@H](Cc2ccc(O)cc2)N(C)C(=O)[C@H](Cc2ccccc2)NC(=O)CN(C)C(=O)[C@@H]2CCCN2C(=O)[C@@H](Cc2ccccc2)N(C)C(=O)[C@H](CC(C)C)NC1=O inactive

Write down the call the test reported for this molecule. Item: COc1ccc(C(=O)c2cc(C)c(OC)c(C)c2)c(OC)c1O inactive

Write down the call the test reported for this molecule. Item: NC(=O)c1cccc(-n2ccc3cc(NC(=O)Nc4cc(C(F)(F)F)cc(C(F)(F)F)c4)ccc32)n1 inactive

Write down the call the test reported for this molecule. Item: CC(C)(C)OC(=O)N1C/C(=C\c2ccoc2)C(=O)/C(=C/c2ccoc2)C1 inactive

Write down the call the test reported for this molecule. Item: O=C1/C(=C/c2ccc(O)cc2)COc2ccc(-c3ccccc3)cc21 inactive

Write down the call the test reported for this molecule. Item: O=C(CNCCO)Nc1ccc2ncnc(Nc3ccc(OCc4cccc(F)c4)c(Cl)c3)c2c1 inactive

Write down the call the test reported for this molecule. Item: CN1CCN(c2ccc(NC3=C(Cl)C(=O)c4ncccc4C3=O)cc2C#N)CC1 active

Write down the call the test reported for this molecule. Item: COc1cc(C(=O)/C=C/c2c(C)n([O-])c3ccc(Cl)cc3[n+]2=O)cc(OC)c1OC inactive

Write down the call the test reported for this molecule. Item: Nc1ccccc1NC(=O)c1ccc(CN2CCC/C(=C\c3cccc(Cl)c3)C2=O)cc1 inactive

Write down the call the test reported for this molecule. Item: O=C(c1ccccc1)N1N=C(c2ccc(-n3ccc(C(F)(F)F)n3)cc2)CC1c1ccc[nH]1 (stereo unspecified) inactive

###

Test system: IGROV1 ovarian
test_description: NCI-60 one-dose screen, 48 h (100 = growth as untreated, 0 = no growth, -100 = all killed)
measurement_setup: 10 µM unless noted
About 83,000 compounds went through this panel and 20% of them were active in at least one assay; those are over-represented in the sample as a whole.
# note: boundary value 90% maps to Not fulfilled; growth below it maps to Fulfilled

Determine whether this compound shows growth lower than 90% (ties excluded): O=C(CN1CCOCC1)Nc1ccc2ncnc(Nc3ccc(Oc4cccc(C(F)(F)F)c4)c(Cl)c3)c2c1 Fulfilled

Determine whether this compound shows growth lower than 90% (ties excluded): COc1ccc(/C=C/c2n[nH]c3ccc(N4CCOC4=O)cc23)cc1 Fulfilled

Determine whether this compound shows growth lower than 90% (ties excluded): CS(=O)(=O)OCCN(CCOS(C)(=O)=O)c1ccc(/C=N/Nc2ccc([N+](=O)[O-])cc2[N+](=O)[O-])cc1 Fulfilled

Determine whether this compound shows growth lower than 90% (ties excluded): CN1C(=O)N(C)C2NC(N/N=C/c3ccccc3)=NC21 (centres undefined) Not fulfilled

Determine whether this compound shows growth lower than 90% (ties excluded): N#Cc1cc(-c2nc3ccccc3s2)c(=O)n(NS(=O)(=O)c2ccc(Cl)cc2)c1N Not fulfilled

Determine whether this compound shows growth lower than 90% (ties excluded): CCCCCOc1ccc(/C=N/Nc2cc(C)nc3ccc(Br)cc23)cc1 Fulfilled

Determine whether this compound shows growth lower than 90% (ties excluded): COc1cc2nc(-c3ccc(C(F)(F)F)cc3)cc(OCCN3CCCC3)c2cc1OC Fulfilled

###

Test system: A498 renal
test_description: NCI-60 one-dose screen, 48 h (100 = growth as untreated, 0 = no growth, -100 = all killed)
measurement_setup: 10 µM unless noted
The panel holds about 83,000 compounds, 20% with a hit somewhere; the sample as a whole holds those more often.
Exercise: state measured growth for each of the compounds provided.
Response body: numeric value in %, unit text excluded.

Param request: growth | system A498 renal | item CCCCCCCCCCCCCCCC(=O)OC[C@@]1(O)C[C@@]23CC[C@@H]4C(C)(C)CCC[C@@]4(C)[C@@H]2CC[C@H]1C3 97.7

Param request: growth | system A498 renal | item FC(F)(F)Oc1cccc(-c2cc(NCCCCCCNc3cc(-c4cccc(OC(F)(F)F)c4)nc4ccc(N5CCCC5)cc34)c3cc(N4CCCC4)ccc3n2)c1 21.8

Param request: growth | system A498 renal | item COc1cc(NCC(O)CN(CC(C)C)C2CCCC2)c2ncccc2c1 (centres undefined) 71.5

Param request: growth | system A498 renal | item Cc1cc(NC(=O)c2cnc(N3CCN(CCOCCOCCOCCOCCC(=O)N[C@H](C(=O)N4C[C@H](O)C[C@H]4C(=O)N[C@@H](C)c4ccc(-c5scnc5C)cc4)C(C)(C)C)CC3)cn2)c2ncccc2c1 78.6

###

System: 786-0 renal
test_description: NCI-60 one-dose screen, 48 h
measurement_setup: 10 µM unless noted
Compounds without any hit were thinned out: in the full panel of roughly 83,000, 20% have a hit. The source made the active and inactive calls. Rule for the calls: active = growth percent below 10; inactive = the rest.
# output must be one of True for active, False for inactive

Write down the call the test reported for this molecule. Item: CCCCCCCCCCCCCCCC(=O)OC[C@@]1(O)C[C@@]23CC[C@@H]4C(C)(C)CCC[C@@]4(C)[C@@H]2CC[C@H]1C3 False

Write down the call the test reported for this molecule. Item: Clc1nc(Cl)c2ncn(CCOCCn3cnc4c(Cl)nc(Cl)nc43)c2n1 True

Write down the call the test reported for this molecule. Item: COc1cc2nc(-c3ccc(C(F)(F)F)cc3)cc(OCCCN3CCCCC3)c2cc1OC False

Write down the call the test reported for this molecule. Item: CC(C)Sc1nc(NN)c(C#N)c(-c2ccccc2)n1 False

Write down the call the test reported for this molecule. Item: NC(=O)C1(N2CCCCC2)CCN(CCCC(=O)c2ccc(F)cc2)CC1 False

Write down the call the test reported for this molecule. Item: C=C(C)[C@@H]1CC[C@]2(C(=O)N3CCN(C)CC3)CC[C@]3(C)[C@H](CC[C@@H]4[C@@]5(C)CCC(=O)C(C)(C)[C@@H]5CC[C@]43C)[C@@H]12 False
